Would you kindly list GI50 for each of these molecules?
Biological target: Ba/F3 cell line expressing TYK2 (Homo sapiens, UniProt P29597, cells depend on it, form not given)
Experiment: In vitro cellular inhibition assay (Ba/F3 cell proliferation, CellTiter-Glo)
Assay type: cell-based
Conditions: read-out: IC50 (the source's name)

// known answers, use as guide
molecule | metric_name | result
[2H]C([2H])([2H])NC(=O)c1cnc(NC(=O)C2CC2)cc1Nc1cccc(C(=O)Nc2ccncc2)c1OC [Example 102] | GI50 | 5 to 10 nM
[2H]C([2H])([2H])NC(=O)c1nnc(NC(=O)C2CC2)cc1Nc1cccc(C(=O)Nc2cncnc2)c1OC [Example 52] | GI50 | 5 to 10 nM
[2H]C([2H])([2H])NC(=O)c1nnc(NC(=O)C2CC2)cc1Nc1cccc(C(=O)Nc2ccc(C)nc2)c1OC [Example 44] | GI50 | 5 to 10 nM

Record GI50 per entry; entries follow.
1. [2H]C([2H])([2H])NC(=O)c1nnc(NC(=O)C2CC2)cc1Nc1cccc(C(=O)Nc2ccc(OC)cc2)c1OC [Example 24]
2. [2H]C([2H])([2H])NC(=O)c1cnc(NC(=O)C2CC2)cc1Nc1cccc(C(=O)Nc2cccc(C(F)(F)F)c2)c1OC [Example 64]
3. [2H]C([2H])([2H])NC(=O)c1cnc(NC(=O)C2CC2)cc1Nc1cccc(C(=O)Nc2cccc(OC)c2)c1OC [Example 66]

[A]
["5 to 10 nM", "5 to 10 nM", "5 to 10 nM"]
